Item-by-item account of pEC50
- protocol_text: Antiproliferative activity against human WM3211 cells after 3 days by SRB assay
- Format: functional
- reported_conditions: read-out: ED50 (the source's name)
pEC50: −log10 of the molar value.
experimental_readout: pEC50

molecule: C=C(C[n+]1ccc(N(C)C)cc1)[C@@H]1CC[C@]2(C(=O)O)CC[C@]3(C)[C@H](CC[C@@H]4[C@@]5(C)CC[C@H](OC(=O)C[n+]6ccc(N(C)C)cc6)C(C)(C)[C@@H]5CC[C@]43C)[C@@H]12
experimental_readout: pEC50
limit_qualifier: <
measurement: 5.33
--
molecule: C=C(C)[C@@H]1CC[C@]2(COC(=O)C[n+]3ccc(N(C)C)cc3)CC[C@]3(C)[C@H](CC[C@@H]4[C@@]5(C)CC[C@H](OC(=O)C[n+]6ccc(N(C)C)cc6)C(C)(C)[C@@H]5CC[C@]43C)[C@@H]12
experimental_readout: pEC50
limit_qualifier: =
measurement: 6.30
--
molecule: C=C(C)[C@@H]1CC[C@]2(CO)CC[C@]3(C)[C@H](CC[C@@H]4[C@@]5(C)CC[C@H](OC(=O)C[n+]6ccc(N(C)C)cc6)C(C)(C)[C@@H]5CC[C@]43C)[C@@H]12
experimental_readout: pEC50
limit_qualifier: =
measurement: 6.52
--
molecule: C=C(C[n+]1ccc(N(C)C)cc1)[C@@H]1CC[C@]2(COC(=O)C(C)[n+]3ccc(N(C)C)cc3)CC[C@]3(C)[C@H](CC[C@@H]4[C@@]5(C)CC[C@H](OC(=O)C(C)[n+]6ccc(N(C)C)cc6)C(C)(C)[C@@H]5CC[C@]43C)[C@@H]12 (some centres undefined)
experimental_readout: pEC50
limit_qualifier: <
measurement: 5.42

Cited source for all entries: ChEMBL document CHEMBL1212901
